biological target: Pyruvate kinase PKLR (Homo sapiens, UniProt P30613, R510Q); experiment: Activation of PKR R510Q mutant (unknown origin) incubated for 60 mins in presence of ADP, PEP and NADH by Spectraax microplate reader based assay
Sequence (P30613 whole entry R510Q): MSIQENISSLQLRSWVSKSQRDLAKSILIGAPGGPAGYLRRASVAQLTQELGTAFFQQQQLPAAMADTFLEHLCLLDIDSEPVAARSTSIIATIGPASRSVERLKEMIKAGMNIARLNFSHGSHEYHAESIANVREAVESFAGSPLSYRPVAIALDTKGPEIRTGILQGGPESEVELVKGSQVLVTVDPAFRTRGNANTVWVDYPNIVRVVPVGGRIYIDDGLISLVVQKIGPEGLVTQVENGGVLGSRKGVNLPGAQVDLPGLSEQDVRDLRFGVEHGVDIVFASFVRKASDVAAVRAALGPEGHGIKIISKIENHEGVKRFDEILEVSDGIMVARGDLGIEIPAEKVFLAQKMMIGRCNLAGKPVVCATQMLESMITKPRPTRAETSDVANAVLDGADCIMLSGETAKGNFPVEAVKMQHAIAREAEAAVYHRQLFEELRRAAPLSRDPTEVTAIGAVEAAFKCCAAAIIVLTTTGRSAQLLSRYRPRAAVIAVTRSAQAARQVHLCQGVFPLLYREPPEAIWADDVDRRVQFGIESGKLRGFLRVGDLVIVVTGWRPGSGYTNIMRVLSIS
The entries below are paired with their reported AC50.
measurement.kind: AC50

[[record]]
smiles_text = "O=C(c1ccc(NS(=O)(=O)c2cccc3c2OCCC3)cc1)N1CCC(O)(c2ccccc2Cl)CC1"
measurement = "< 100 nM"

[[record]]
smiles_text = "O=C(c1ccc(NS(=O)(=O)c2cccc3nccnc23)cc1)N1CCC(O)(CCC=C(F)F)CC1"
measurement = "< 100 nM"

[[record]]
smiles_text = "Nc1nc2c(S(=O)(=O)Nc3ccc(C(=O)N4CCC(O)(c5cccc(F)c5F)CC4)cc3)cccc2s1"
measurement = "< 100 nM"

[[record]]
smiles_text = "O=C(c1ccc(NS(=O)(=O)c2cccc3nccnc23)cc1)N1CCC(O)(c2ncc(Cl)s2)CC1"
measurement = "≥ 1010 nM"


Reference for the values: ChEMBL document CHEMBL3727356
